Origin of values: the supplement of paper PMC11451515

- System: NOMO1
- assay_comment: cell viability relative to DMSO control; higher = less cytotoxic
- cond: RPMI 5 mM glucose + 10% FBS; 48 h; 46.1 µM
Reported cell viability is given for each of the following compounds.
metric: cell viability

compound=CCc1ccc(/C=C2/SC(=S)NC2=O)cc1 result=75%
compound="CCCCN(CCCC)CC(O)c1cc(Cl)cc2c1-c1ccc(Cl)cc1/C2=C/c1ccc(Cl)cc1 (stereo not drawn)" result=97.8%
compound=CC12CC3CC(C)(C1)CC(N)(C3)C2 result=58.5%
compound=CCCCCCCCCCCCCC(=O)N[C@H](CO)[C@H](O)c1ccc([N+](=O)[O-])cc1 result=2.43%
compound=CNCC[C@H](Oc1cccc2ccccc12)c1cccs1 result=26.3%
compound=CC[C@H]1OC(=O)[C@H](C)C(=O)[C@H](C)[C@@H](O[C@H]2O[C@H](C)C[C@H](N(C)C)[C@H]2O)[C@](C)(OC)C[C@@H](C)C(=O)[C@H](C)[C@H]2N(CCCCn3cnc(-c4cccnc4)c3)C(=O)O[C@]12C result=103%
compound=CN1CC(=O)N2[C@H](c3ccc4c(c3)OCO4)c3[nH]c4ccccc4c3C[C@@H]2C1=O result=77%
compound="O=C(CCCN1CCN(c2ccc(F)cc2)CC1)NC1c2ccccc2CSc2ccccc21 (stereo not drawn)" result=71.1%

---

- Test system: NOMO1
- assay_comment: cell viability relative to DMSO control; higher = less cytotoxic
- cond: HPLM + 10% dialyzed FBS; 48 h; 0.0211 µM
metric: cell viability (%)

compound="CC(N[C@H]1CCCC[C@@H]1NC(=O)c1ccc(Cl)cc1)c1cccc2ccccc12 (some centres undefined)" number=127
compound=O=C(O)c1cccnc1Nc1cccc(C(F)(F)F)c1 number=104
compound=O=C(O)c1cc(/N=N/c2ccc([S+](=O)([O-])Nc3ccccn3)cc2)ccc1O number=104
compound=CC12CC3CC(C)(C1)CC(N)(C3)C2 number=98.4
compound=Oc1nc(-c2ccc(C(F)(F)F)cc2)nc2c1CSCC2 number=81.1
compound="CC[C@@H]([C@H](C)O)n1ncn(-c2ccc(N3CCN(c4ccc(OCC5CO[C@@](Cn6cncn6)(c6ccc(F)cc6F)C5)cc4)CC3)cc2)c1=O (some centres undefined)" number=112
compound=NC[C@H]1O[C@H](O[C@@H]2[C@H](O)[C@@H](O[C@H]3O[C@H](CO)[C@@H](O)[C@H](N)[C@H]3O)[C@H](N)C[C@@H]2N)[C@H](O)[C@@H](O)[C@@H]1O number=111
compound="CC(C(=O)O)c1ccc2c(c1)CC(=O)c1ccccc1S2 (centres undefined)" number=120
compound=CCCCOc1c(C(=O)c2c(F)cc(C)cc2F)cnc2[nH]ncc12 number=103

---

- Test system: P12-Ichikawa
- assay_comment: cell viability relative to DMSO control; higher = less cytotoxic
- cond: HPLM + 10% dialyzed FBS; 48 h; 0.19 µM
metric: cell viability (%)

molecule="COc1ccc(C(=O)CC2(O)C(=O)Nc3c(Cl)ccc(Cl)c32)cc1 (stereo not drawn)" metric="cell viability" number=124
molecule="CCOC(=O)C(C)OC1=CC=CC2=C1\\C=C/N(CC(=O)NC3=CC=C4OCCOC4=C3)C2=O (stereo not drawn)" metric="cell viability" number=106
molecule=Oc1nc(-c2ccc(C(F)(F)F)cc2)nc2c1CSCC2 metric="cell viability" number=108
molecule=C[C@@H](CN1CC(=O)NC(=O)C1)N1CC(=O)NC(=O)C1 metric="cell viability" number=75
molecule=Nc1ccc([S+](=O)([O-])Nc2ccnn2-c2ccccc2)cc1 metric="cell viability" number=102
molecule=C[C@@H]1CCO[C@H]2CN\3/C=C(/C(=O)NCC4=C(F)C=C(F)C=C4)C(=O)\C(=C3C(=O)N12)O metric="cell viability" number=105
molecule=CC[C@H]1OC(=O)[C@H](C)C(=O)[C@H](C)[C@@H](O[C@H]2O[C@H](C)C[C@H](N(C)C)[C@H]2O)[C@](C)(OC)C[C@@H](C)C(=O)[C@H](C)[C@H]2N(CCCCn3cnc(-c4cccnc4)c3)C(=O)O[C@]12C metric="cell viability" number=116
molecule=Cc1cccc(Nc2ccncc2[S+](=O)([O-])NC(=O)NC(C)C)c1 metric="cell viability" number=96.7
